- METHOD SUMMARY: Resistance to Poly (ADP-Ribose) Polymerase inhibitor: Gene Identification via Genome-wide siRNA Screen
- EXPERIMENTAL CONTEXT: mouse BRCA2 R2336H ES cells, olaparib, CellTiter-Glo viability; hits give high values
Out of some 52,000 sequences screened, about 210 (0.4%) were called active. This is one part of a sample in which actives are shown more often than they occur.
QUANTITY KIND: z-score

SEQUENCE CONTENT: GGAGGAAAAAAAGUGAAGATT against Zfp339
ASSAY RESULT: 0.689
//
SEQUENCE CONTENT: CCGAAAUAAGGCUAGCUCATT against Rfxdc1
ASSAY RESULT: 1.33
//
SEQUENCE CONTENT: GGUAGUGUUAACUAUAUGGTT against Hmgb3
ASSAY RESULT: 1.85
//
SEQUENCE CONTENT: CGUGUGAGGUUUGUGAAAGTT against Gzmf
ASSAY RESULT: -2.41
//
SEQUENCE CONTENT: GGCCCAUUUUGGUGUGCAUTT against Hyal3
ASSAY RESULT: -0.6
//
SEQUENCE CONTENT: GGAGACAGUAAUAGCUCAUTT against Trp53bp1
ASSAY RESULT: 2.14
//
SEQUENCE CONTENT: GGACCAGGUUCACUUCCCUTT against Ovol1
ASSAY RESULT: 0.343
//
SEQUENCE CONTENT: CCCAGAGGUUCCCGUCAAUTT against Hmgb3
ASSAY RESULT: 1.9
//
SEQUENCE CONTENT: GGACGGACAUUUAUGACCCTT against Cpsf3
ASSAY RESULT: -0.072
//
SEQUENCE CONTENT: GGGACUUUUUUUGAAUCCUTT against Ndrg3
ASSAY RESULT: 0.835
//
SEQUENCE CONTENT: GCCCAUGAAUUUUUACUUATT against C330019G07Rik
ASSAY RESULT: 0.714
//
SEQUENCE CONTENT: GGCACAUGCCCUUUUCUACTT against Cog1
ASSAY RESULT: 0.266
//
SEQUENCE CONTENT: GGAGUACCUGGACAUUGUGTT against 1110032N12Rik
ASSAY RESULT: 0.677
//
SEQUENCE CONTENT: CGAUGUACUGUCUCUUUUGTT against Ywhaz
ASSAY RESULT: 1.53
//
SEQUENCE CONTENT: GCAUUCAUGAAAGUGUUAGTT against Olfr164
ASSAY RESULT: 1.23
//
SEQUENCE CONTENT: CCCUCUUUAUCGUCUGUGATT against Gpha2
ASSAY RESULT: -0.468
//
SEQUENCE CONTENT: CCGGUUGCUAGGCUAAACATT against Wdr68
ASSAY RESULT: -3.25
//
SEQUENCE CONTENT: CGUGCUUAAGAGUCCACUATT against H3f3a
ASSAY RESULT: -1.43
//
SEQUENCE CONTENT: GCGAUUAAUGGCAUAGUUUTT against Sara1
ASSAY RESULT: -1.04
//
SEQUENCE CONTENT: GCGAACAGAAAAGACCAAUTT against Col4a5
ASSAY RESULT: 1.11
//
SEQUENCE CONTENT: GGUGCAGUUUAAGAGAGAATT against C630016B22Rik
ASSAY RESULT: 0.153
//
SEQUENCE CONTENT: CCGGGUCAGGACAAUUCAUTT against Hsd17b1
ASSAY RESULT: 1.29
//
SEQUENCE CONTENT: GGACUUGGAAGUAAUUUUCTT against C230071H18Rik
ASSAY RESULT: 2.75
//
SEQUENCE CONTENT: GCGUAUCCCAGAUAUCCGATT against BC064033
ASSAY RESULT: 0.0741
//
SEQUENCE CONTENT: GGACUUUUAUUUUGUUAGCTT against Pacsin2
ASSAY RESULT: 3.01
//
SEQUENCE CONTENT: CCAAAUACGACUUACGAAATT against Ncam2
ASSAY RESULT: 0.897
//
SEQUENCE CONTENT: GGCUUAUCAGUCCAUGAAGTT against BC022224
ASSAY RESULT: 1.93
//
SEQUENCE CONTENT: GAUAUAAGGACUCUUUGAATT against 4732486J07Rik
ASSAY RESULT: -0.212
//
SEQUENCE CONTENT: GGAUUUCCUGGAAAAUUCCTT against Siat8a
ASSAY RESULT: 0.62
//
SEQUENCE CONTENT: GGUCAAAAGAAACAGGUGUTT against 2310047I15Rik
ASSAY RESULT: 0.438
//
SEQUENCE CONTENT: GGAUGAACAGGAGAAAGUCTT against Irak2
ASSAY RESULT: 0.0975
//
SEQUENCE CONTENT: GGCAUCCGUGUGUCUCUAGTT against 5730457F11Rik
ASSAY RESULT: -2.13
//
SEQUENCE CONTENT: GGCUGUGAGAUAGAUCUAATT against E130112L23Rik
ASSAY RESULT: -0.595
//
SEQUENCE CONTENT: GGUGCCUGACCAAAAAGGATT against A830094I09Rik
ASSAY RESULT: 2.67
//
SEQUENCE CONTENT: GGCAGUGGCUUGGAUAAAUTT against 5730457F11Rik
ASSAY RESULT: 2.83
//
SEQUENCE CONTENT: CAAACCCAUGUUCUAAAUGTT against Oog3
ASSAY RESULT: 0.339
//
SEQUENCE CONTENT: CCGGGUGCUGUUCUAUAAGTT against Pecam1
ASSAY RESULT: 0.0651
//
SEQUENCE CONTENT: GGAUGUCACAACAGUUAUGTT against Otog
ASSAY RESULT: 1.4
//
SEQUENCE CONTENT: GCUUAACCGUUUUUUCAAATT against Tgif
ASSAY RESULT: 0.555
//
SEQUENCE CONTENT: GGCAUUUUUCUUCUCCAAATT against Clns1a
ASSAY RESULT: -0.934
//
SEQUENCE CONTENT: GCUAUAUCUAAAGCUAUUCTT against Sgpp1
ASSAY RESULT: 0.574
//
SEQUENCE CONTENT: GGAAGCAGAAUUGUAAAGATT against Bid3
ASSAY RESULT: 2.41
//
SEQUENCE CONTENT: CGAGAUCACGAGAUCGGUUTT against Prdm4
ASSAY RESULT: 2.21
//
SEQUENCE CONTENT: GGACCACCUAAGUUUAAGCTT against Pde6g
ASSAY RESULT: 2.55
//
SEQUENCE CONTENT: GCAUUAUGACUCUAAUAGCTT against Olfr60
ASSAY RESULT: 0.536
//
SEQUENCE CONTENT: GGACUUCAUCAAAGUCUUATT against Cyp11a1
ASSAY RESULT: -1.45
//
SEQUENCE CONTENT: CCAGCACUCAAUCCUGUAATT against Olfr305
ASSAY RESULT: -1.73
//
SEQUENCE CONTENT: GUUGAGGACUUCUUGCUGGTT against Cmar
ASSAY RESULT: -1.03
//
SEQUENCE CONTENT: CCUUCAAUUUCAGUUCAGATT against Olfr1388
ASSAY RESULT: 0.422

// data source = PubChem BioAssay AID1347423
